Species: Rattus norvegicus
Procedure summary: DrugMatrix - Regimen: Daily Repeat
Format: toxicity, organism-based, Sprague-Dawley
Design: regimen Daily Repeat, gender Male, age 6-8 weeks
Condition info: in vivo, po, 10 mg/kg, 72 h, tissue Plasma, route oral GAVAGE, dose level Low, time 3 day, […]
TOTAL BILIRUBIN by entry:
Form entry: value (mg/dL) — number only.

Examples with answers:
> print(dat)
                                   compound  experimental.value
1  CC(C)CC(N(C)C)C1(c2ccc(Cl)cc2)CCC1 (centres undefined)                0.13
2  COCCOC(=O)C1=C(C)NC(C)=C(C(=O)OC(C)C)C1c1cccc([N+](=O)[O-])c1 (centres undefined)                0.17
3  CCOC(=O)C1=C(C)NC(C)=C(C(=O)OC)C1c1cccc([N+](=O)[O-])c1 (centres undefined)                 0.2

Now examine the next entry.
TOTAL BILIRUBIN reading for `COc1ccc2cc([C@H](C)C(=O)O)ccc2c1` : 0.1
